- Measured on: T1, Spike Delta (SARS-CoV-2)
- T1 construct: also called Delta spike; delta spike protein
- Assay explanation: SPR, Delta spike as solid phase [panel C]
pKd: −log10 of the molar value.
Reported property: pKd

INSERT INTO results (binder, reported_measurement) VALUES
  ('Tri-pdbody (designed binder, also called 3-Arm; 3arm) LCB1 mini-binder coupled to a DNA handle that is hybridised to an arm of a 3-helix-bundle DNA nanostructure: DKEWILQKIYEIMRLLDELGHAEASMRVSDLIYEFMKKGDERLLEEAERLLEEVER', 9.67);
